Measured values drawn from patent US9775844B2 for this set.

pIC50: −log10 of the molar value.
In what follows, each item is paired with its pIC50 for PI3K β (Homo sapiens (Human)).

| Structure as smiles | Target | Reported |
| --- | --- | --- |
| CNS(=O)(=O)CCn1c([C@H](C)NC(=O)c2c(N)nn3cccnc23)cc2cccc(C#Cc3cnn(C)c3)c2c1=O | PI3K β (Homo sapiens (Human)) | 5.30 to 6.00 |
| CCOC(C#Cc1cccc2cc([C@H](C)NC(=O)c3c(N)nn4cccnc34)n(-c3ccccc3)c(=O)c12)OCC | PI3K β (Homo sapiens (Human)) | 5.00 to 5.30 |
| C[C@H](NC(=O)c1c(N)nn2cccnc12)c1cc2cccc(C#CC(C)(C)C)c2c(=O)n1-c1ccccc1 | PI3K β (Homo sapiens (Human)) | 5.00 to 5.30 |
| C[C@H](NC(=O)c1c(N)nn2cccnc12)c1cc2cccc(C#CCO)c2c(=O)n1-c1ccccc1 | PI3K β (Homo sapiens (Human)) | 5.30 to 6.00 |
| CC(C)n1c([C@H](C)NC(=O)c2c(N)nn3cccnc23)cc2cccc(C#Cc3cnn(C)c3)c2c1=O | PI3K β (Homo sapiens (Human)) | 5.00 to 5.30 |

Note to self: pIC50 recorded for CC#Cc1cccc2nc([C@H](C)NC(=O)c3c(N)nn4cccnc34)n(-c3ccccc3)c(=O)c12 was 5.30 to 6.00

Note to self: pIC50 recorded for Cc1ccccc1-n1c([C@H](C)NC(=O)c2c(N)nn3cccnc23)cc2cccc(C#Cc3cnn(C)c3)c2c1=O was 5.00 to 5.30

Note to self: pIC50 recorded for Cc1ncsc1C#Cc1cccc2cc([C@H](C)NC(=O)c3c(N)nn4cccnc34)n(-c3ccccc3)c(=O)c12 was 5.00 to 5.30

Note to self: pIC50 recorded for C[C@H](NC(=O)c1c(N)nn2cccnc12)c1cc2cccc(C#Cc3cnn(C)c3)c2c(=O)n1CCS(=O)(=O)N(C)C was 5.30 to 6.00

Note to self: pIC50 recorded for C[C@H](NC(=O)c1c(N)nn2cccnc12)c1cc2cccc(C#CC3CC3)c2c(=O)n1C1CC1 was 5.30 to 6.00

---

target: PI3K-γ in RAW264.7 macrophages (Mus musculus (Mouse)); assay: Raw264.7 p110 γ assay (PI3K-γ selective cellular assay, C5a-stimulated phospho-AKT); assay type: cell-based
Sequence (Q9JHG7 whole entry): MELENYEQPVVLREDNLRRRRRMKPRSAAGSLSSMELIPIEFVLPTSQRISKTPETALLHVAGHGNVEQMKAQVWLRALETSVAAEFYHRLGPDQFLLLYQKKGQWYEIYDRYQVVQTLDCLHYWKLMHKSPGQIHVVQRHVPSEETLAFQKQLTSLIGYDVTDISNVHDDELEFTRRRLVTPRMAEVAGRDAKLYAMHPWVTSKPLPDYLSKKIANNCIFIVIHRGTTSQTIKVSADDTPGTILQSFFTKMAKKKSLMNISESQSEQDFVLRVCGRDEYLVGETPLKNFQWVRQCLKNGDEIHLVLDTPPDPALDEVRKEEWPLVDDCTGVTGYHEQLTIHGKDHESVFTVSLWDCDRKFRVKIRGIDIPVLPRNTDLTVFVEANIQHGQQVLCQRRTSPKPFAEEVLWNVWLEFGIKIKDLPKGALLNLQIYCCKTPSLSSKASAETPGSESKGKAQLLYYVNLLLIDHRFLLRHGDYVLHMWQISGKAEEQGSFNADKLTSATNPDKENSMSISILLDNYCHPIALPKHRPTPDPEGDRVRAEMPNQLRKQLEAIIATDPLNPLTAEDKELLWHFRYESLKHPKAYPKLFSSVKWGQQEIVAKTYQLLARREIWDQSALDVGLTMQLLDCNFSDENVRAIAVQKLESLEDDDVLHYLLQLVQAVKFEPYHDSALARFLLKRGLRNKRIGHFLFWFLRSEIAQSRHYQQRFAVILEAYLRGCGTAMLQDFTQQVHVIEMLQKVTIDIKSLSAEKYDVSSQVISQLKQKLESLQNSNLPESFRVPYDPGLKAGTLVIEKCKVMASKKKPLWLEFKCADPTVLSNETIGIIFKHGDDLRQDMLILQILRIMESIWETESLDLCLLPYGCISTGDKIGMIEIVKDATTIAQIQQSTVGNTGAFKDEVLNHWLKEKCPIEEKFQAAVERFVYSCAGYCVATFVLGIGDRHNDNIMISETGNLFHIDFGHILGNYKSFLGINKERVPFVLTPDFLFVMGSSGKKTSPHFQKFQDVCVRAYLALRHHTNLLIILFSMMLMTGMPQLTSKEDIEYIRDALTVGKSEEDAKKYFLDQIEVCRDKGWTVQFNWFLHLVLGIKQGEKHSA
Observable: RAJIδ/Raw264.7 γ IC50 (selectivity)

Sample records with RAJIδ/Raw264.7 γ IC50 (selectivity):
| Compound | RAJIδ/Raw264.7 γ IC50 (selectivity) |
| --- | --- |
| C[C@H](NC(=O)c1c(N)nn2cccnc12)c1cc2cccc(C#Cc3ccccn3)c2c(=O)n1-c1ccccc1 [Compound 32] | Y (Y = 50 to <850) |
| C[C@H](NC(=O)c1c(N)nn2cccnc12)c1cc2cccc(C#Cc3cocn3)c2c(=O)n1-c1ccccc1 [Compound 66] | X (X = 10 to <50) |
| C[C@H](NC(=O)c1c(N)nn2cccnc12)c1cc2cccc(C#CCN3CCN(C)CC3)c2c(=O)n1-c1ccccc1 [Compound 56] | V (V = 0.1 to 1) |
| Cc1nc(C#Cc2cccc3nc([C@H](C)NC(=O)c4c(N)nn5cccnc45)n(-c4ccccc4)c(=O)c23)cs1 [Compound 63] | Y (Y = 50 to <850) |
| C[C@H](NC(=O)c1c(N)nn2cccnc12)c1cc2cccc(C#Cc3cncn3C)c2c(=O)n1-c1ccccc1 [Compound 7] | Y (Y = 50 to <850) |

Note to self: RAJIδ/Raw264.7 γ IC50 (selectivity) recorded for COCC#Cc1cccc2cc([C@H](C)NC(=O)c3c(N)nn4cccnc34)n(-c3ccccc3)c(=O)c12 [Compound 12] was X (X = 10 to <50)

Note to self: RAJIδ/Raw264.7 γ IC50 (selectivity) recorded for C[C@H](NC(=O)c1c(N)nn2cccnc12)c1cc2cccc(C#CCN3CCOCC3)c2c(=O)n1-c1ccccc1 [Compound 10] was X (X = 10 to <50)

Note to self: RAJIδ/Raw264.7 γ IC50 (selectivity) recorded for C[C@H](NC(=O)c1c(N)nn2cccnc12)c1cc2cccc(C#Cc3ccncc3)c2c(=O)n1-c1ccccc1 [Compound 26] was Y (Y = 50 to <850)

Note to self: RAJIδ/Raw264.7 γ IC50 (selectivity) recorded for C[C@H](NC(=O)c1c(N)nn2cccnc12)c1cc2cccc(C#Cc3cncs3)c2c(=O)n1-c1ccccc1 [Compound 41] was Y (Y = 50 to <850)

Note to self: RAJIδ/Raw264.7 γ IC50 (selectivity) recorded for CCOC(C#Cc1cccc2cc([C@H](C)NC(=O)c3c(N)nn4cccnc34)n(-c3ccccc3)c(=O)c12)OCC [Compound 34] was X (X = 10 to <50)

Note to self: RAJIδ/Raw264.7 γ IC50 (selectivity) recorded for C#Cc1cccc2nc([C@H](C)NC(=O)c3nccnc3N)n(-c3ccc(F)cc3)c(=O)c12 [Compound 49] was V (V = 0.1 to 1)

---

target: PI3K δ (Homo sapiens (Human))
Sequence (O00329 whole entry): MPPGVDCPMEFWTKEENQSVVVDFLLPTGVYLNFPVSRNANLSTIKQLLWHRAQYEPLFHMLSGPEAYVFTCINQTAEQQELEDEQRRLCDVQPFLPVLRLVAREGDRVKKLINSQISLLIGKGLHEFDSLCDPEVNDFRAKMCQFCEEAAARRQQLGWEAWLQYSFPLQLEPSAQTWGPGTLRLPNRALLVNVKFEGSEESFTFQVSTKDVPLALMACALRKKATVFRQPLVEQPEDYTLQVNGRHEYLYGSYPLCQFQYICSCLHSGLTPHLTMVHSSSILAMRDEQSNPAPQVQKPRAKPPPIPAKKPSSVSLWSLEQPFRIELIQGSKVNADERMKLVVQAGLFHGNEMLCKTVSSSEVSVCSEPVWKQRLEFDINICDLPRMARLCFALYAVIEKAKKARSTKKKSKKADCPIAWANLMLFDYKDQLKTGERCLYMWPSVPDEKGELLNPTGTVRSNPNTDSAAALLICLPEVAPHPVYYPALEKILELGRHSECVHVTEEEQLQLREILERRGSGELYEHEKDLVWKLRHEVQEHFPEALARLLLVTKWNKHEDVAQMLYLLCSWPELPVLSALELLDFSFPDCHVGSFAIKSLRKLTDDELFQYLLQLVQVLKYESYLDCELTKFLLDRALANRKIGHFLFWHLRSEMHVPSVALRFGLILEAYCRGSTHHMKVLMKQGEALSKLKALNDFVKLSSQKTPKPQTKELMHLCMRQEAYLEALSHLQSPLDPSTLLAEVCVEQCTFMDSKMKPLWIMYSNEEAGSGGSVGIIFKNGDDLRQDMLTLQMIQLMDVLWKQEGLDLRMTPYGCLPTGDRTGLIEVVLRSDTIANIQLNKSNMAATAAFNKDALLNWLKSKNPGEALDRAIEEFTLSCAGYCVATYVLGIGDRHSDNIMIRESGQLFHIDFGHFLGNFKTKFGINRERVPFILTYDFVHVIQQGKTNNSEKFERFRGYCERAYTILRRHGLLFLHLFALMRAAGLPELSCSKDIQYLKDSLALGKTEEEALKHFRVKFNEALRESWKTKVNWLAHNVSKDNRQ
Sequence (P27986 whole entry partner): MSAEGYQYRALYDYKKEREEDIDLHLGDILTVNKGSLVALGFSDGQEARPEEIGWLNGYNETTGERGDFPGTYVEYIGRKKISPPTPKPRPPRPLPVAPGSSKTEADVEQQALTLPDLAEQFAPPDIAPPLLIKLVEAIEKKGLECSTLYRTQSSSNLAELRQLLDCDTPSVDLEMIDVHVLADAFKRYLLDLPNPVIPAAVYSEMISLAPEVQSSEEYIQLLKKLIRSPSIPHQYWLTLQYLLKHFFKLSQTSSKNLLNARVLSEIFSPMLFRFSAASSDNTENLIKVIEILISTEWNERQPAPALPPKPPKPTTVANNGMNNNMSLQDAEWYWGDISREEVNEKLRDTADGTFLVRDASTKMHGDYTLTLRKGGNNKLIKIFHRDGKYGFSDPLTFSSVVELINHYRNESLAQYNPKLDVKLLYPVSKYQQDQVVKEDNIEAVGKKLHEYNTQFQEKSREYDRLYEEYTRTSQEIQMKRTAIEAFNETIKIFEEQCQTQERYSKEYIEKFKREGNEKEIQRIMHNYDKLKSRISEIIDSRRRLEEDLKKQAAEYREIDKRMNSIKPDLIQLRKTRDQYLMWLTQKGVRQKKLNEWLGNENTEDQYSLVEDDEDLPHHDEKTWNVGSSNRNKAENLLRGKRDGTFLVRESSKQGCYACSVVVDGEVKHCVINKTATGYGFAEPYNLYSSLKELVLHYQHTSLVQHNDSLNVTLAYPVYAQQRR
Measured IC50 accompanies every entry in the list below.

Sample records with IC50:
| Molecule | Target | IC50 |
| --- | --- | --- |
| C#Cc1cccc2nc([C@H](C)NC(=O)c3c(N)nn4cccnc34)n(C)c(=O)c12 [Compound 48] | PI3K δ (Homo sapiens (Human)) | 1 to 5 µM |
| Cc1ncsc1C#Cc1cccc2cc([C@H](C)NC(=O)c3c(N)nn4cccnc34)n(-c3ccccc3)c(=O)c12 [Compound 75] | PI3K δ (Homo sapiens (Human)) | 5 to 10 µM |
| C[C@H](NC(=O)c1c(N)nn2cccnc12)c1cc2cccc(N)c2c(=O)n1-c1ccccc1 [Compound 109] | PI3K δ (Homo sapiens (Human)) | 1 to 5 µM |
| Cc1c(C#Cc2cccc3cc([C@H](C)NC(=O)c4c(N)nn5cccnc45)n(-c4ccccc4)c(=O)c23)cnn1C [Compound 35] | PI3K δ (Homo sapiens (Human)) | 5 to 10 µM |

Note to self: IC50 recorded for Cc1ncccc1C#Cc1cccc2cc([C@H](C)NC(=O)c3c(N)nn4cccnc34)n(-c3ccccc3)c(=O)c12 [Compound 67] was 5 to 10 µM

Note to self: IC50 recorded for C#Cc1cccc2nc([C@H](C)NC(=O)c3nccnc3N)n(-c3ccccc3)c(=O)c12 [Compound 47] was 0.001 to 0.5 µM

Note to self: IC50 recorded for CCOC(C#Cc1cccc2cc([C@H](C)NC(=O)c3c(N)nn4cccnc34)n(-c3ccccc3)c(=O)c12)OCC [Compound 34] was 5 to 10 µM

---

target: PI3K γ (Homo sapiens (Human), UniProt P48736); assay: PI3-Kinase Promega ADP-Glo Max assay; format: biochemical
Sequence (P48736 whole entry): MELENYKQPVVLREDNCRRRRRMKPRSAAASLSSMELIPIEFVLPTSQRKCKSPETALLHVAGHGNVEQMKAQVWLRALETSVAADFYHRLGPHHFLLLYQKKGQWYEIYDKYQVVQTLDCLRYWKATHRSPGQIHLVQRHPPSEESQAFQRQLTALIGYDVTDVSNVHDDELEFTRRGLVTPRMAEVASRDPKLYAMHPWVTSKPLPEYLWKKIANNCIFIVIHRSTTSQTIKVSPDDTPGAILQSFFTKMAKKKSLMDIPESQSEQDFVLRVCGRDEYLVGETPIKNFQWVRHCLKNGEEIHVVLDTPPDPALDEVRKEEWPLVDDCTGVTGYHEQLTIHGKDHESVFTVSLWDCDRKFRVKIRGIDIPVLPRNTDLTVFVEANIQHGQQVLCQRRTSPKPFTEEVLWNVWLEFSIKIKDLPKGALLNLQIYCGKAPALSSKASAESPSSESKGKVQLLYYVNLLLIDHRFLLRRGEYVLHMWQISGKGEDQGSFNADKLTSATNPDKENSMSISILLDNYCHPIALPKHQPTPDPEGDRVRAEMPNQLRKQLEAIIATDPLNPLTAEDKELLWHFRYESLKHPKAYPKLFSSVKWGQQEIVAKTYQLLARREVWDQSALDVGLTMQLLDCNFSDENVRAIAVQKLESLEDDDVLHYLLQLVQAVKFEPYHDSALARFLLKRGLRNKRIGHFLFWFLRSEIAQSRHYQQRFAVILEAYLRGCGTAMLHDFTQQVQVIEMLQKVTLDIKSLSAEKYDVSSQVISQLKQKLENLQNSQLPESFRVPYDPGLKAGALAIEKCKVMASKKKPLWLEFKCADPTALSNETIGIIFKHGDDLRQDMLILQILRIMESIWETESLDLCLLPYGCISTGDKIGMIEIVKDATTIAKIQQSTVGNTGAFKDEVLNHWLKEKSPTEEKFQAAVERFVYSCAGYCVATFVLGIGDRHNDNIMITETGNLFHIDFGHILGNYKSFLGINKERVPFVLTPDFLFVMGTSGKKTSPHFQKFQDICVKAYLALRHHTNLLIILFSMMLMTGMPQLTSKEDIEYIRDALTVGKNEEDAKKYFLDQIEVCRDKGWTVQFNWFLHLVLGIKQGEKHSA
Observable: PI3K δ/PI3K γ IC50 (selectivity)

| Molecule | Reported |
| --- | --- |
| C#Cc1cccc2nc([C@H](C)NC(=O)c3nccnc3N)n(-c3ccc(F)cc3)c(=O)c12 | X (X = 10 to <50) |
| Cc1ncsc1C#Cc1cccc2cc([C@H](C)NC(=O)c3c(N)nn4cccnc34)n(-c3ccccc3)c(=O)c12 | W (W = >1 to <10) |
| C[C@H](NC(=O)c1c(N)nn2cccnc12)c1cc2cccc(C#Cc3cscn3)c2c(=O)n1-c1ccccc1 | Y (Y = 50 to <850) |
| Cc1nc(C#Cc2cccc3cc([C@H](C)NC(=O)c4c(N)nn5cccnc45)n(-c4ccccc4)c(=O)c23)cs1 | Y (Y = 50 to <850) |
| C[C@H](NC(=O)c1c(N)nn2cccnc12)c1cc2cccc(C#Cc3cncn3C)c2c(=O)n1-c1ccccc1 | Y (Y = 50 to <850) |

Note to self: PI3K δ/PI3K γ IC50 (selectivity) recorded for C[C@H](NC(=O)c1c(N)nn2cccnc12)c1cc2cccc(C#CC3CCOC3)c2c(=O)n1-c1ccccc1 (stereo partly shown) was Y (Y = 50 to <850)

Note to self: PI3K δ/PI3K γ IC50 (selectivity) recorded for Cc1ncc(C#Cc2cccc3cc([C@H](C)NC(=O)c4c(N)nn5cccnc45)n(-c4ccccc4)c(=O)c23)s1 was Y (Y = 50 to <850)

Note to self: PI3K δ/PI3K γ IC50 (selectivity) recorded for C[C@H](NC(=O)c1c(N)nn2cccnc12)c1cc2cccc(C#CCN3CCCC3=O)c2c(=O)n1-c1ccccc1 was X (X = 10 to <50)

Note to self: PI3K δ/PI3K γ IC50 (selectivity) recorded for COc1ccc(C#Cc2cccc3cc([C@H](C)NC(=O)c4c(N)nn5cccnc45)n(-c4ccccc4)c(=O)c23)cn1 was Y (Y = 50 to <850)

Note to self: PI3K δ/PI3K γ IC50 (selectivity) recorded for Cc1scnc1C#Cc1cccc2cc([C@H](C)NC(=O)c3c(N)nn4cccnc34)n(-c3ccccc3)c(=O)c12 was X (X = 10 to <50)

Note to self: PI3K δ/PI3K γ IC50 (selectivity) recorded for C[C@H](NC(=O)c1c(N)nn2cccnc12)c1nc2cccc(C#Cc3cnn(C)c3)c2c(=O)n1C was W (W = >1 to <10)

Note to self: PI3K δ/PI3K γ IC50 (selectivity) recorded for Cc1nn(C)c(C)c1C#Cc1cccc2cc([C@H](C)NC(=O)c3c(N)nn4cccnc34)n(-c3ccccc3)c(=O)c12 was W (W = >1 to <10)

Note to self: PI3K δ/PI3K γ IC50 (selectivity) recorded for COc1ncc(C#Cc2cccc3cc([C@H](C)NC(=O)c4c(N)nn5cccnc45)n(-c4ccccc4)c(=O)c23)cn1 was Y (Y = 50 to <850)

Note to self: PI3K δ/PI3K γ IC50 (selectivity) recorded for Cc1nn(C)cc1C#Cc1cccc2cc([C@H](C)NC(=O)c3c(N)nn4cccnc34)n(-c3ccccc3)c(=O)c12 was Y (Y = 50 to <850)

Note to self: PI3K δ/PI3K γ IC50 (selectivity) recorded for C[C@H](NC(=O)c1c(N)nn2cccnc12)c1cc2cccc(C#CCN3CCOCC3)c2c(=O)n1-c1ccccc1 was X (X = 10 to <50)
